# experimental_system: Grb2 SH2 (UniProt P62993)
# protocol: SH2 binding enrichment of the phosphorylated peptide, bacterial display (enrichment ratio); higher = better substrate or ligand; peptides without Tyr show the background;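 further: peptide library displayed on the E. coli surface as eCPX fusions, selected cells deep-sequenced, score is each peptide's frequency after selection divided by its frequency in the input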
metric_name: SH2 binding enrichment

Please review the entries below; each comes with its answer.
>>> df
                      query_sequence             metric_name  measured
0           KHASTYREAAT [DEAF1_Y483]  SH2 binding enrichment     0.874
1  TIMTNYNPNFC [ALK_Y1092_D1091N_YF]  SH2 binding enrichment     0.775
2       IDPFIYTPFGS [CYP3A4_Y432_YF]  SH2 binding enrichment     0.861
3      PYVYYYSYLLK [PTEN_Y178_R173P]  SH2 binding enrichment     0.873
4      EALDFYGELRT [PTEN_Y155_V158L]  SH2 binding enrichment     0.775

A = EFGEVYKGTLK [EPHA2_Y628_M631T]
B = FGIAQYCCRMG [LRRK2_Y2023_YF]
Lookup: // max by SH2 binding enrichment over [ A , B ] Response format: the label of the selected entry.
Found: B
